Values from PubChem BioAssay

System: wheat germ agglutinin (Triticum aestivum), Alexa647-labelled
ASSAY NOTES: wheat germ agglutinin binders on compound microarrays, profiling panel, artefact control for SMM control-protein annotation, biochemical, small-molecule microarray, 635/667 nm fluorescence (AID 1140);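 also: score merges 667 nm feature emission with signal to noise over triplicate slides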
SETUP CONDITIONS: WGA-A647 binding, 635 nm fluorescence, higher = more signal
Provide the recorded composite z-score for the entries that follow.

Kindly indicate its recorded composite z-score. Item: CC(C)CCN1CCc2nc(-c3ccccc3)c3c(c2C1)CO[C@@H](C)C3
0.931

Give reported composite z-score value for O=C1[C@H]2[C@H]3[C@H](O)[C@H](O)CC(=NOCc4ccccc4)[C@H]3CC[C@H]2C(=O)N1Cc1ccccc1
0.0116

Return the recorded composite z-score value; entry: CCN1C(=O)[C@H]2[C@H]3[C@H](O)[C@H](O)CC(=NOC)[C@@H]3CC[C@H]2C1=O
0.299
